molecular target: OPRM1 (Homo sapiens)
Sequence (P35372 whole entry): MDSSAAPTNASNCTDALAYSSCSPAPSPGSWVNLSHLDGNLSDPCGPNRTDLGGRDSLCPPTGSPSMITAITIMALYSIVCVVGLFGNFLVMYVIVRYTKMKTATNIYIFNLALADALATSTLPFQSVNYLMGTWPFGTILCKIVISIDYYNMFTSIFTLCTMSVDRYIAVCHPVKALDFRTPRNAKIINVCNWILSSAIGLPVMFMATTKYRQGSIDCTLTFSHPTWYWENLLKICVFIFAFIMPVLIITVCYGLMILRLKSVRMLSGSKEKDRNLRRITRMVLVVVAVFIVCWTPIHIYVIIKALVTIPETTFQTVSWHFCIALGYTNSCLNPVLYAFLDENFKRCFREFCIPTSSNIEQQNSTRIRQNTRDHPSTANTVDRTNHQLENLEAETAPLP
Recorded metric: IC50 (µM)
The reply should contain only the number, in µM.

// IC50 lookup, compound = "O=S(=O)(NCc1ccc2c(c1)OCO2)c1ccc(Cc2ccc(S(=O)(=O)NCc3ccc4c(c3)OCO4)cc2)cc1" , result: 3.7

====

target: KvLQT1/minK (Homo sapiens, UniProt P15382+P51787); construct: Eurofins; test: Eurofins SAFETYscan 78-target panel, off-target effects, KvLQT1/minK; settings: antagonist / blocker / inhibitor mode
Recorded metric: IC50 (nM)
The reply should contain only the number, in nM.

// IC50 lookup, molecule = "O=S(=O)(NCc1ccc2c(c1)OCO2)c1ccc(Cc2ccc(S(=O)(=O)NCc3ccc4c(c3)OCO4)cc2)cc1" , result: 1800

====

target: DRD1 (Homo sapiens, UniProt P21728)
Sequence (P21728 whole entry): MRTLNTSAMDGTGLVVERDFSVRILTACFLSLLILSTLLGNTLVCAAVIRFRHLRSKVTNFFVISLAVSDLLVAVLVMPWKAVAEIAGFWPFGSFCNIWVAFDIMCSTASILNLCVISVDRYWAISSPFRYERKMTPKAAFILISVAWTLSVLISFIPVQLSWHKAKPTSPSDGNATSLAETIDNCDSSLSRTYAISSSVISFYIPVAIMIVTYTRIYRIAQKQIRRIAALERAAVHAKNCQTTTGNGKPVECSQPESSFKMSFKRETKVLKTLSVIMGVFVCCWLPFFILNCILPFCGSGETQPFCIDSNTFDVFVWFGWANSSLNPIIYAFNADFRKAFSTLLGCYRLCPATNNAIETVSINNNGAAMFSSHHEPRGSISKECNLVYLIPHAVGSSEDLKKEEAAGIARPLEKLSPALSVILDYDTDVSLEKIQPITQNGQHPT
Recorded metric: IC50 (nM)
The reply should contain only the number, in nM.

With DRD1 (Homo sapiens, UniProt P21728) as the test system, O=S(=O)(NCc1ccc2c(c1)OCO2)c1ccc(Cc2ccc(S(=O)(=O)NCc3ccc4c(c3)OCO4)cc2)cc1 [M1i-124] showed IC50 of 1900

====

biological target: BCL10-MALT1 interaction (Homo sapiens, UniProt Q9UDY8); experiment: ELISA-based protein-protein interaction assay, BCL10-MALT1 (FIG. 2F, 2H); His-tagged recombinant human full-length Bcl10 on plate, GST-tagged recombinant human full-length MALT1; set-up: GST-tagged recombinant human full-length MALT1 protein; GST; purchased Novus Biologicals H00010892-P01; settings: compound preincubated with 100 ng GST-MALT1 for 1 hour, 100 ng His-Bcl10 on plate, one-site binding fit, read-out: IC50 for inhibition of BCL10-MALT1 binding (ELISA)
Sequence (Q9UDY8 whole entry, the tested form may be a part): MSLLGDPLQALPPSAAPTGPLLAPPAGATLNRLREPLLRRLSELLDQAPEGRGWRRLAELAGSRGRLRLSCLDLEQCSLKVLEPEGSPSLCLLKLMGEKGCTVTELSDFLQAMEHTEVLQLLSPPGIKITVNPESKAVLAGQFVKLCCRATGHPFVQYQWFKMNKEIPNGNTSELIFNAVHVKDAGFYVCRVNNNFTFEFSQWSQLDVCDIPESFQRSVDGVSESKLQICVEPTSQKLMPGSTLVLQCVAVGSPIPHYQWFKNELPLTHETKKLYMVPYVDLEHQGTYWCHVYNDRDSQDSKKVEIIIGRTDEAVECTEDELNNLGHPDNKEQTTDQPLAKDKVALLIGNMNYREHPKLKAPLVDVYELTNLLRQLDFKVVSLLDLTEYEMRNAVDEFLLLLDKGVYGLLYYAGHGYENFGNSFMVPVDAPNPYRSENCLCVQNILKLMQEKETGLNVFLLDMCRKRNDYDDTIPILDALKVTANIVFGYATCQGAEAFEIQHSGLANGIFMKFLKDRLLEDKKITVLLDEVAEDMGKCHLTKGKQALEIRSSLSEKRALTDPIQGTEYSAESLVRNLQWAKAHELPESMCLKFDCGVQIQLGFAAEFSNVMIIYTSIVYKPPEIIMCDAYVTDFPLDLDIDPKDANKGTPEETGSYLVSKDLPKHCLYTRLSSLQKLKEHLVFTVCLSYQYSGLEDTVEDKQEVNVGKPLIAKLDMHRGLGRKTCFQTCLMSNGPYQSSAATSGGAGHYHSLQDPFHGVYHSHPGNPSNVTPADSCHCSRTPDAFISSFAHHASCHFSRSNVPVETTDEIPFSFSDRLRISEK
Recorded metric: IC50 (µM)
The reply should contain only the number, in µM.

// IC50 lookup, compound = "COc1ccc(CNS(=O)(=O)c2ccc(Cc3ccc(S(=O)(=O)NCc4ccc(OC)cc4)cc3)cc2)cc1" , result: 8.45

====

molecular target: HRH2 (Homo sapiens)
Sequence (P25021 whole entry): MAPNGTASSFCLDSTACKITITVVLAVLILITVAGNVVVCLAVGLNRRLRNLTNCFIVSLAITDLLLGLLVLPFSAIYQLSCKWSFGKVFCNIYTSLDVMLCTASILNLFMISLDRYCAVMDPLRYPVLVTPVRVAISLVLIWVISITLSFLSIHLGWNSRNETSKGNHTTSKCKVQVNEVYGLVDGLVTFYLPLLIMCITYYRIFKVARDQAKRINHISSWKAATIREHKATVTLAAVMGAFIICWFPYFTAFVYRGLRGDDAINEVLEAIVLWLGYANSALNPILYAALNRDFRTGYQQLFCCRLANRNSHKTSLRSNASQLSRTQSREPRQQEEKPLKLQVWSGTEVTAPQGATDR
Recorded metric: pIC50
On this scale, pIC50 is minus log10 of a concentration expressed in M (mol/L).

// pIC50 lookup, compound = "O=S(=O)(NCc1ccc2c(c1)OCO2)c1ccc(Cc2ccc(S(=O)(=O)NCc3ccc4c(c3)OCO4)cc2)cc1" , result: 5.64

====

target: BCL10-MALT1 interaction (Homo sapiens, UniProt Q9UDY8); construct: analyte a purified recombinant MALT1 fragment (DD+Ig1-2, Sumo-tagged Ig1-2 or GB-tagged DD); test: SPR analysis of disruption of the BCL10-MALT1 interaction, dose-response (FIG. 2E); Biacore 2000, full-length Bcl10 (GST-tagged recombinant human, Abnova H00008915-P01) immobilized on sensor chip, MALT1 protein passed over; format: binding
Sequence (Q9UDY8 whole entry, the tested form may be a part): as the sequence (Q9UDY8 whole entry, the tested form may be a part) above
Sequence (O95999 whole entry partner, the tested form may be a part): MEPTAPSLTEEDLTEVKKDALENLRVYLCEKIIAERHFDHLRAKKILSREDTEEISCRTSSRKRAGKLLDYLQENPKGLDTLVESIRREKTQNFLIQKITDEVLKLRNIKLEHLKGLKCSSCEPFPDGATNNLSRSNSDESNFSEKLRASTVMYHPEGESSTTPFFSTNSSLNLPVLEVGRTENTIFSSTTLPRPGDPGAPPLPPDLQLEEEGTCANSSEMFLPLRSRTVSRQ
Recorded metric: pIC50
On this scale, pIC50 is minus log10 of a concentration expressed in M (mol/L).

// pIC50 lookup, molecule = "O=S(=O)(NCc1ccc2c(c1)OCO2)c1ccc(Cc2ccc(S(=O)(=O)NCc3ccc4c(c3)OCO4)cc2)cc1" , result: 4.66

====

target: ADRB1 (Homo sapiens)
Sequence (P08588 whole entry): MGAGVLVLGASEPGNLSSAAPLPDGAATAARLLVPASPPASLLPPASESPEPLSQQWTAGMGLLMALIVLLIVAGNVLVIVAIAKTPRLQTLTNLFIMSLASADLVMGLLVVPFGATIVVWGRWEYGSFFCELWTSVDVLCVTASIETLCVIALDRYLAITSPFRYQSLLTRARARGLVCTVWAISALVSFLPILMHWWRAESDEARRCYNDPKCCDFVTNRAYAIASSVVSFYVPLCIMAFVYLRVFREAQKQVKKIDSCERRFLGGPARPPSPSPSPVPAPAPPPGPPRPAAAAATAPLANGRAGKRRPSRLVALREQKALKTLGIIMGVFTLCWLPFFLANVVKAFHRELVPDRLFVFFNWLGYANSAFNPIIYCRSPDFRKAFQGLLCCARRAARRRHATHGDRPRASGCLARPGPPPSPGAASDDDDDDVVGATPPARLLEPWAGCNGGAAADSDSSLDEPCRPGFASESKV
Recorded metric: IC50 (µM)
The reply should contain only the number, in µM.

With ADRB1 (Homo sapiens) as the test system, "O=S(=O)(NCc1ccc2c(c1)OCO2)c1ccc(Cc2ccc(S(=O)(=O)NCc3ccc4c(c3)OCO4)cc2)cc1" showed IC50 of 0.8

Ref: patent US20240124410A1
